target: Cytochrome P450 1A2 (Homo sapiens); experiment: Cytochrome panel assay with activity outcomes; details: recombinant CYP, pro-luciferin dealkylation, luminescence, p450-cyp1a2; series mostly up to 57.1 µM
About 5,700 (36%) of roughly 16,000 compounds were called active. Inconclusive results (about 24%) are left out. Calls follow the shape of the dose curve; as a rule, active = well fitted curve in the direction sought with a large enough effect; inconclusive = small, poorly fitted or top-dose-only effect, or effect the other way; inactive = no such curve, though single readings can be large or run the other way. The list shows a part of the results.
Outcomes: active, inactive

| MOLECULE | ASSIGNED LABEL |
| --- | --- |
| COc1ccc([N+](=O)[O-])cc1NCc1ccccc1C | active |
| COc1ccc([N+](=O)[O-])cc1NC1C2CC3CC(C2)CC1C3 (stereo unspecified) | inactive |
| CCCOc1ccc(-c2nc(N)n[nH]2)cc1 | active |
| C=CCNc1sc(C(=O)c2ccc(C)cc2)c(N)c1C#N | active |
| Cc1cccc(OCC(=O)N2CCC(N3CCCCCC3)CC2)c1 | inactive |
| Cc1cc([N+](=O)[O-])ccc1NCc1ccccc1 | active |
| O=C(N/C(=C/c1ccc(Br)cc1)c1nc2ccccc2[nH]1)c1ccco1 | active |
| O=C(COc1ccc(Br)cc1)N1CCC(c2ccccc2)C1 (stereo unspecified) | active |
| C#CC[N+](CC)(CC)CC#Cc1cccc(Cl)c1 | inactive |
| CCOc1ccc(NC(=O)N2CCC(c3ccc(C)cc3)C2)cc1 (stereo unspecified) | inactive |
| COc1cc(C2C(C#N)=C(N)N(Nc3ccccc3)C3=C2C(=O)CC(C)(C)C3)ccc1OCc1ccccc1 (stereo unspecified) | inactive |

---

molecular target: Cytochrome P450 1A2 (Homo sapiens) (UniProt P05177); assay: Cytochrome panel assay with activity outcomes; conditions: recombinant CYP, pro-luciferin dealkylation, luminescence, p450-cyp1a2; series mostly up to 57.1 µM
Sequence (P05177 whole entry, looked up): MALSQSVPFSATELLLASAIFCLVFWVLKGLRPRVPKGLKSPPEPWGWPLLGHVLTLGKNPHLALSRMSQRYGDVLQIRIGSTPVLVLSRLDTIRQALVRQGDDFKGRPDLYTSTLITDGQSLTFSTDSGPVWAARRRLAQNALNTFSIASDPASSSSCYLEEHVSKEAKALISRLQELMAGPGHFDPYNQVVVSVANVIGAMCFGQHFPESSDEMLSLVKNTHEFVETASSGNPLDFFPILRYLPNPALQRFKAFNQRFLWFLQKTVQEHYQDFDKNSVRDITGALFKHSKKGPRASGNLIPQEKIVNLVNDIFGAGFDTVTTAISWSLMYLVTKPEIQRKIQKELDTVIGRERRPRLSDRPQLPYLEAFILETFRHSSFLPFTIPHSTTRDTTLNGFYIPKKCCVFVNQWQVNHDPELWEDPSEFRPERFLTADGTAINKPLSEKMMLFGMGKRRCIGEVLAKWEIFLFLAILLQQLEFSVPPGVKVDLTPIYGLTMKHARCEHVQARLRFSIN
Screen size: about 16,000 compounds; about 5,700 (36%) were called active. Another 24% or so got no clear call; they are omitted. The call rests on the fitted dose curve; in most records, active means well fitted curve in the direction sought with a large enough effect; inconclusive means small, poorly fitted or top-dose-only effect, or effect the other way; inactive means no such curve, though single readings can be large or run the other way. Some of the results follow.
Classes used: TRUE (active), FALSE (inactive)

| MOLECULE | ASSIGNED LABEL |
| --- | --- |
| Cn1c(=O)c(-c2cc(F)cc(F)c2)nc2cncnc21 | TRUE |
| COc1cccc(-c2noc(-c3cccnc3)n2)c1 | TRUE |
| CCOc1ccc(-c2nnc(-c3ccncc3)o2)cc1 | TRUE |
| COc1cc2c3c(c1OC)C1(C=CC(=O)C=C1)CC3N(C(=O)c1ccccc1)CC2 (stereo unspecified) | FALSE |
| CCC(Sc1ncccc1C(=O)O)C(=O)N1CCOCC1 (stereo unspecified) | FALSE |
| FC(F)(F)c1ccccc1-c1nccc(N2CCNCC2)n1 | TRUE |
| COc1ccc(CC(=O)Nc2ccc(-c3noc(-c4cccc(OC)c4)n3)cc2)cc1 | FALSE |
| COc1cccc(-c2nnc3n2N=C(C(C)(C)C)CS3)c1 | TRUE |
| COc1ccc(CC(=O)N2CCN(c3ccc(C4=NNC(=O)CC4C)cc3)CC2)cc1 (stereo unspecified) | FALSE |
| FC(F)(F)c1nc(-c2ccncc2)ncc1-c1nnnn1-c1ccccc1 | TRUE |
| OCCN1CCOCCOCCN(CCO)CCN(CCO)CC1 | FALSE |

---

target: Cytochrome P450 1A2 (Homo sapiens) (UniProt P05177); test: Cytochrome panel assay with activity outcomes; conditions: recombinant CYP, pro-luciferin dealkylation, luminescence, p450-cyp1a2; series mostly up to 57.1 µM
The whole screen tested about 16,000 compounds, of which about 5,700 (36%) were called active. About 24% were inconclusive and are not listed. Calls come from the whole dose curve; as a rule, active = well fitted curve in the direction sought with a large enough effect; inconclusive = small, poorly fitted or top-dose-only effect, or effect the other way; inactive = no such curve, though single readings can be large or run the other way. The list shows a part of the results.
Outcomes: TRUE for active, FALSE for inactive

| COMPOUND | MEASUREMENT TARGET | ASSIGNED LABEL |
| --- | --- | --- |
| COc1cc(N=c2ssnc2Cl)cc(OC)c1OC | Cytochrome P450 1A2 (Homo sapiens) (UniProt P05177) | TRUE |
| CC(C)(C)n1ncc2c(=O)n(CC(=O)NCc3ccccc3Cl)cnc21 | Cytochrome P450 1A2 (Homo sapiens) (UniProt P05177) | FALSE |
| COC(=O)c1nn(-c2cccc(C(F)(F)F)c2)c(=O)cc1Sc1ccccn1 | Cytochrome P450 1A2 (Homo sapiens) (UniProt P05177) | TRUE |
| CC(C)Nc1nc(NC(C)(C)C)nc(Oc2ccc(=O)n(-c3ccccc3)n2)n1 | Cytochrome P450 1A2 (Homo sapiens) (UniProt P05177) | FALSE |
| CCCCn1cnc2c(cnn2-c2ccc(F)cc2)c1=O | Cytochrome P450 1A2 (Homo sapiens) (UniProt P05177) | TRUE |
| O[C@@](CCN1CCCCC1)(c1ccccc1)C1CCCCC1 | Cytochrome P450 1A2 (Homo sapiens) (UniProt P05177) | FALSE |
| Cc1ccccc1Cn1cnc2c(cnn2C(C)(C)C)c1=O | Cytochrome P450 1A2 (Homo sapiens) (UniProt P05177) | FALSE |
| COC(=O)[C@@]1(Cc2ccc(F)cc2)[C@H]2c3cc(C(=O)N(C)C)n(Cc4ccc(C(F)(F)F)nc4)c3C[C@H]2CN1C(=O)c1ccccc1 | Cytochrome P450 1A2 (Homo sapiens) (UniProt P05177) | FALSE |
| COc1cc(-c2nnc(SCC3(c4ccccc4)OCCO3)o2)cc(OC)c1OC | Cytochrome P450 1A2 (Homo sapiens) (UniProt P05177) | TRUE |
| CC(C)C(C(=O)NCC1CCCO1)N(Cc1ccco1)C(=O)CNS(=O)(=O)c1ccc(F)cc1 (stereo unspecified) | Cytochrome P450 1A2 (Homo sapiens) (UniProt P05177) | FALSE |
| O=C(c1ccccc1)c1nn(-c2ccccc2)c(=O)cc1C(F)(F)F | Cytochrome P450 1A2 (Homo sapiens) (UniProt P05177) | TRUE |

---

molecular target: Cytochrome P450 1A2 (Homo sapiens) (UniProt P05177); experiment: Cytochrome panel assay with activity outcomes; details: recombinant CYP, pro-luciferin dealkylation, luminescence, p450-cyp1a2; series mostly up to 57.1 µM
About 5,700 (36%) of roughly 16,000 compounds were called active. About 24% were inconclusive and are not listed. Calls follow the shape of the dose curve; as a rule, active = well fitted curve in the direction sought with a large enough effect; inconclusive = small, poorly fitted or top-dose-only effect, or effect the other way; inactive = no such curve, though single readings can be large or run the other way. This is one part of the list.
Classes used: active, inactive

| COMPOUND | MEASUREMENT TARGET | ASSIGNED LABEL |
| --- | --- | --- |
| Cn1cc(C(=O)OCC2CCN(CCNS(C)(=O)=O)CC2)c2ccccc21 | Cytochrome P450 1A2 (Homo sapiens) (UniProt P05177) | active |
| Cn1cc(-c2nnc(-c3ccccc3)o2)c2ccccc21 | Cytochrome P450 1A2 (Homo sapiens) (UniProt P05177) | active |
| COc1ccc(NC(=O)N2CCCC3(CCN(C(=O)c4c(C)noc4C)CC3)C2)cc1 | Cytochrome P450 1A2 (Homo sapiens) (UniProt P05177) | inactive |
| COC(=O)c1c(C)oc2ccc(N(C(=O)c3ccncc3)S(=O)(=O)c3ccccc3)cc12 | Cytochrome P450 1A2 (Homo sapiens) (UniProt P05177) | active |
| COc1ccc(NC(=O)N2CCCC3(CCN(C(=O)c4ccco4)CC3)C2)cc1 | Cytochrome P450 1A2 (Homo sapiens) (UniProt P05177) | inactive |
| CN(c1ccc(C(=O)NCC2CCCO2)cc1)S(=O)(=O)c1ccccc1 (stereo not given) | Cytochrome P450 1A2 (Homo sapiens) (UniProt P05177) | inactive |
| COc1[nH]c2ccc(F)cc2c1C(=O)OCC1CCN(CCNS(C)(=O)=O)CC1 | Cytochrome P450 1A2 (Homo sapiens) (UniProt P05177) | inactive |
| O=C(Nc1ccccc1)N1CCCC2(CCN(C(=O)c3ccco3)CC2)C1 | Cytochrome P450 1A2 (Homo sapiens) (UniProt P05177) | active |
| Cc1ccccc1-c1ccc2ncnc(N3CCNCC3)c2c1 | Cytochrome P450 1A2 (Homo sapiens) (UniProt P05177) | active |
| Cc1noc(C)c1C(=O)N1CCC2(CCN(C(=O)Nc3ccccc3)CC2)CC1 | Cytochrome P450 1A2 (Homo sapiens) (UniProt P05177) | inactive |

---

target: Cytochrome P450 1A2 (Homo sapiens); assay: Cytochrome panel assay with activity outcomes; conditions: recombinant CYP, pro-luciferin dealkylation, luminescence, p450-cyp1a2; series mostly up to 57.1 µM
Hit rate of the full screen: of about 16,000 compounds, about 5,700 (36%) were called active. About 24% were inconclusive and are not listed. Calls come from the whole dose curve; as a rule, active = well fitted curve in the direction sought with a large enough effect; inconclusive = small, poorly fitted or top-dose-only effect, or effect the other way; inactive = no such curve, though single readings can be large or run the other way. Some of the results follow.
Outcome codes: active, inactive

| MOLECULE | ASSIGNED LABEL |
| --- | --- |
| CC(NC(=O)CN1CCCC1)C12CC3CC(CC(C3)C1)C2 (stereo unspecified) | inactive |
| COc1ccc(CNc2nc(-c3ccccc3CN(C)C)nc3ccccc23)c(OC)c1 | active |
| O=C(COc1ccc2ccccc2c1)N1CCN(C(=O)c2cccnc2)CC1 | inactive |
| COc1ccccc1CNc1nc(-c2ccccc2CN(C)C)nc2ccccc12 | active |
| CN(Cc1ccco1)c1nc(-c2ccoc2)nc2ccccc12 | active |
| O=C(Oc1ccccc1)N1CCC2(CC1)CN(c1ccncc1)C2 | inactive |
| COC(=O)c1[nH]c2ccc(Br)cc2c1NC(=O)CN1CCN(C2CCCCC2)CC1 | active |
| CC(=O)c1cn(CCCCCCCCCCn2cc(C(C)=O)c(=O)[nH]c2=O)c(=O)[nH]c1=O | inactive |
| N=C(N)SCc1cccc2c(=O)cc(-c3ccccc3)oc12 | active |
| C[C@H](NC[C@H](O)CP(=O)(O)CC1CCCCC1)c1ccc(Cl)c(Cl)c1 | active |
| CCCCCCCCn1cc(C(C)=O)c(=O)[nH]c1=O | active |
